System: PIK3C2B
test-context: concentration: 1 μM, replicates: in singlicate; n = 1
result-type: %Inh (%)
Record the value in %, omitting the unit from your answer.

Query: Determine from records and report %Inh for C[C@@H]1CC[C@H](C(=O)NC2CCCCC2)CN1c1cc(-c2ccc3c(N)n[nH]c3c2)nc(N)n1 [GSK2291363]
Response: 0

====

Test system: PRKG2
test-context: concentration: 1 μM, replicates: in singlicate; n = 1
%Inh by entry:
Note: state the figure and append the unit.

Please review the following examples before continuing.
| compound | %Inh |
| --- | --- |
| C[C@@H]1CC[C@H](C(=O)NC2CCCCC2)CN1c1cc(-c2ccc3c(N)n[nH]c3c2)nc(N)n1 | 0% |
| COc1cc(OC)cc(-c2cc3cnc(N)nc3nc2NC(=O)NC(C)(C)C)c1 | 0% |
| FC(F)(F)c1ccc(-c2ncn(CCCN3CCOCC3)c2-c2ccncc2)cc1 | 25% |
| Nc1nccc2scc(-c3ccc4c(c3)CCN4C(=O)Cc3ccccc3)c12 | 12% |
| COc1cccc(-n2cnc3c(N)ncnc32)c1 | 14% |
| Cc1nc(N(C)[C@H]2CN(C(=O)CC#N)CC[C@H]2C)c2cc[nH]c2n1 | 0% |

Query: Give reported %Inh for `CCc1nc(-c2cccc(C)c2)c(-c2ccncc2)s1` (PRKG2)
Response: 11%

Query: Give reported %Inh for `COc1cc(Nc2ccnc3ccc(C(F)(F)F)cc23)cc(OC)c1OC` (PRKG2)
Response: 6%

Query: Give reported %Inh for `CN1C(=O)C(Nc2cc(Cl)c(O)c(Cl)c2)=C(c2ccc(Cl)cc2)C1=O` (PRKG2)
Response: 0%

Query: Give reported %Inh for Cc1nnc(-c2ccc3ncn(-c4ccc(S(C)=O)cc4)c3c2)o1 (stereo not shown) (PRKG2)
Response: 13%

Query: Give reported %Inh for `CCn1c(-c2nonc2N)nc2ccccc21` (PRKG2)
Response: 67%

Query: Give reported %Inh for COc1cc(Nc2nccc(N3CCC(NC(=O)C4COc5ccccc5O4)C3)n2)cc(OC)c1OC (stereo not shown) (PRKG2)
Response: 3%

Query: Give reported %Inh for `COc1cc2nccc(Nc3ccc(OCc4ccc(NC(C)=O)cc4)cc3)c2cc1OC.Cl` (PRKG2)
Response: 0%

Query: Give reported %Inh for `CCS(=O)(=O)c1ccc(OC)c(Nc2ncc(-c3ccc(F)cc3)o2)c1.Cl` (PRKG2)
Response: 0%

Query: Give reported %Inh for `COc1cc2ncn(-c3cc(OCc4ccncc4Br)c(C(N)=O)s3)c2cc1OC` (PRKG2)
Response: 0%

Query: Give reported %Inh for `COc1cc2ncn(-c3cc(OCc4ccncc4)c(C(N)=O)s3)c2cc1OC` (PRKG2)
Response: 0%

====

Test system: PLK2
test-context: concentration: 1 μM, replicates: in singlicate; n = 1
%Inh by entry:
Note: state the figure and append the unit.

| compound | %Inh |
| --- | --- |
| Cc1ccc(Oc2ccc(Nc3ncnc4cc[nH]c34)cc2C)cn1 | 12% |
| Fc1cccc(CSc2nnc(-c3ccc4c(c3)CCO4)o2)c1 | 6% |
| C[C@@H]1CC[C@H](C(=O)NC2CCCCC2)CN1c1cc(-c2ccc3c(N)n[nH]c3c2)nc(N)n1 [GSK2291363] | 0% |
| COc1cc(Nc2nccc(N3CCC(NC(=O)C(C)c4ccc(Cl)cc4)C3)n2)cc(OC)c1OC (stereo not shown) [GSK1379757] | 0% |

Query: Determine from records and report %Inh for Cl.c1ccc(Cn2cnc3cc(Nc4ncnc5ccccc45)ccc32)cc1 [GW272142]
Response: 0%

Query: Determine from records and report %Inh for O=C1NC(=O)C(c2ccccc2)=C1Nc1cccc(O)c1 [SB-390534]
Response: 20%

====

%Inh by entry:
Tested on: TNIK
test-context: concentration: 1 μM, replicates: in singlicate; n = 1
Note: state the figure and append the unit.

Query: Determine from records and report %Inh for `COc1cc(Nc2ccnc3ccc(C(F)(F)F)cc23)cc(OC)c1OC`
Response: 0%

Query: Determine from records and report %Inh for `Cc1cccc(-c2nc(Nc3ccc4c(cnn4C)c3)c3ccccc3n2)n1`
Response: 0%

Query: Determine from records and report %Inh for `COc1cc2ncn(-c3cc(OCc4ccncc4)c(C(N)=O)s3)c2cc1OC`
Response: 13%

Query: Determine from records and report %Inh for `Nc1nccc2scc(-c3ccc4c(c3)CCN4C(=O)Cc3ccccc3)c12`
Response: 0%

Query: Determine from records and report %Inh for `COc1ccc(-c2cc3c(C)nc(N)nc3n([C@H]3CC[C@H](OCCO)CC3)c2=O)cn1`
Response: 0%

====

Test system: EPHB2
test-context: concentration: 1 μM, replicates: in singlicate; n = 1
%Inh by entry:
Record the value in %, omitting the unit from your answer.

Please review the following examples before continuing.
| chemical-smiles | %Inh / % |
| --- | --- |
| CCc1ccc(-c2ccc3c(c2)-c2nn(C)cc2S(=O)(=O)N3C)cc1 | 0 |
| Nc1nc(-c2ccccc2F)c(-c2ccnc3ccccc23)s1 | 0 |
| O=C(Nc1n[nH]c2cc(-c3ccccc3F)ccc12)C1CC1 | 0 |

Query: Determine from records and report %Inh for `Cc1cccc(-c2cc(-c3c[nH]nc3-c3ccccn3)ccn2)c1`
Response: 17

Query: Determine from records and report %Inh for `COc1cc(Nc2ccnc3ccc(C(F)(F)F)cc23)cc(OC)c1OC`
Response: 26

Query: Determine from records and report %Inh for `Nc1n[nH]c2nnc(-c3ccccc3)c(-c3ccccc3)c12`
Response: 0

Query: Determine from records and report %Inh for `COc1cccc(C2=C(N(C)c3ccccc3)C(=O)NC2=O)c1`
Response: 14

Query: Determine from records and report %Inh for `Cl.c1ccc(Cn2cnc3cc(Nc4ncnc5ccccc45)ccc32)cc1`
Response: 0

Query: Determine from records and report %Inh for `Nc1ncnc2c1ncn2-c1cccc2ccccc12`
Response: 12

Query: Determine from records and report %Inh for `CN(C)c1cc(-c2ccc3c(N)n[nH]c3c2)nc(N)n1`
Response: 0

====

System: PCTK2
Construct: gene CDK17
pKd: −log10 of the molar value.
result-type: pKd

Query: Give reported pKd for `Nc1ncnc2c1ncn2-c1cccc2ccccc12` (PCTK2)
Response: < 5.00

====

Tested on: JAK1(JH2domain-pseudokinase)
test-context: concentration: 1 μM, replicates: in singlicate; n = 1
%Inh by entry:
Record the value in %, omitting the unit from your answer.

| molecule | %Inh (%) |
| --- | --- |
| COc1cc(Nc2nccc(N3CCC(NC(=O)C(C)c4ccc(Cl)cc4)C3)n2)cc(OC)c1OC (stereo not drawn) [GSK1379757] | 0 |

Query: Determine from records and report %Inh for Nc1nc(-c2ccccc2F)c(-c2ccnc3ccccc23)s1 [GW560459]
Response: 0

Query: Determine from records and report %Inh for COc1cc2ncn(-c3cc(OCc4ccncc4Br)c(C(N)=O)s3)c2cc1OC [GW854278]
Response: 19

====

Tested on: RSK1(Kin.Dom.2-C-terminal)
Construct: gene RPS6KA1
result-type: Kd (nM)
Record the value in nM, omitting the unit from your answer.

Query: Determine from records and report Kd for `CCc1nc(-c2cccc(C)c2)c(-c2ccncc2)s1`
Response: 250

====

System: MINK
Construct: gene MINK1
pKd: −log10 of the molar value.
result-type: pKd

Query: Determine from records and report pKd for COc1ccc(CNC(=O)NC2CCN(c3ccnc(Nc4ccc(F)cc4)n3)C2)cc1 (stereo not shown)
Response: < 5.00

====

Test system: CSNK1A1L
test-context: concentration: 1 μM, replicates: in singlicate; n = 1
%Inh by entry:
Record the value in %, omitting the unit from your answer.

| compound | measured-value |
| --- | --- |
| Nc1nc(-c2ccccc2F)c(-c2ccnc3ccccc23)s1 | 7 |
| COc1cc(OC)cc(-c2cc3cnc(N)nc3nc2NC(=O)NC(C)(C)C)c1 | 0 |
| COc1ccc(Nc2nccc(N3CCC(NS(=O)(=O)c4ccc(NC(C)=O)cc4)C3)n2)cc1 (stereo not drawn) | 13 |

Now look at this one.
Query: Determine from records and report %Inh for `COC(=O)c1c(-c2ccccc2)c2cc(Br)ccc2c(=O)n1Cc1ccc(NC(=O)CCC(=O)O)cc1`
Response: 18

====

Tested on: CAMKK2
test-context: concentration: 1 μM, replicates: in singlicate; n = 1
result-type: %Inh (%)
Record the value in %, omitting the unit from your answer.

Please review the following examples before continuing.
| chemical-smiles | %Inh, % |
| --- | --- |
| CCCC(=O)Nc1n[nH]c2ncc(-c3cccc4ccccc34)cc12 | 30 |
| COc1cc(Nc2ccnc3ccc(C(F)(F)F)cc23)cc(OC)c1OC | 0 |
| CCC(=O)c1c(-c2ccccc2)c2cc(Cl)ccc2c(=O)n1Cc1cc(S(C)(=O)=O)n(CC(N)=O)n1 | 0 |
| O=C(NCc1cccs1)c1cc(C(=O)c2c(Cl)cccc2Cl)c[nH]1 | 0 |
| Nc1ncnc2c1ncn2-c1ccc(Cl)cc1 | 10 |
| COc1cc2nccc(Nc3ccc(OCc4ccc(NC(C)=O)cc4)cc3)c2cc1OC.Cl | 1 |
| Fc1cccc(CSc2nnc(-c3ccc4c(c3)CCO4)o2)c1 | 6 |
| Cn1c(=O)c(F)c(Nc2ccc(I)cc2F)c2c(=O)n(OC[C@H](O)CO)cnc21 | 33 |

Now look at this one.
Query: Determine from records and report %Inh for `Cc1ccccc1COc1cc(-n2cnc3cc(Cl)ccc32)sc1C(N)=O`
Response: 0
